Measured Ki (Adenosine 5'-monophosphoramidase HINT1 (Homo sapiens, UniProt P49773))
Give bare numbers, in µM.

smiles str	endpoint name	meas value
Nc1ncnc2c1ncn2[C@@H]1O[C@H](COC(=O)CCc2c[nH]c3ccccc23)[C@@H](O)[C@H]1O	Ki	400

Okay, now this molecule:
q: Name the reported Ki value associated with the molecule Cc1cn([C@H]2C[C@H](N)[C@@H](COC(=O)NCCc3c[nH]c4ccccc34)O2)c(=O)[nH]c1=O
a: 139

###

Assay: Non-competitive inhibition of Escherichia coli HinT using tryptamine 5'-adenosine phosphoramidate as substrate compound pre-incubated for 30 secs prior substrate addition measured for 2 mins by Dixon plot analysis
pKi: −log10 of the molar value.
Please use Met whenever pKi is not below 4, and Not met whenever it is.

smiles str	group
Cc1cn([C@H]2C[C@H](N=[N+]=[N-])[C@@H](COC(=O)NCCc3c[nH]c4ccccc34)O2)c(=O)[nH]c1=O	Not met
Nc1ncnc2c1ncn2[C@@H]1O[C@H](COC(=O)CCc2c[nH]c3ccccc23)[C@@H](O)[C@H]1O	Not met
Nc1ncnc2c1ncn2[C@@H]1O[C@H](COC(=O)CCCc2c[nH]c3ccccc23)[C@@H](O)[C@H]1O	Not met
Nc1nc2c(ncn2[C@@H]2O[C@H](COC(=O)NCCc3c[nH]c4ccccc34)[C@@H](O)[C@H]2O)c(=O)[nH]1	Met

Next:
q: Item Nc1ncnc2c1ncn2[C@@H]1O[C@H](COC(=O)NCCc2c[nH]c3ccccc23)[C@@H](O)[C@H]1O with pKi of 4 or above?
a: Met
